- test target: human recombinant Aurora A (Homo sapiens (Human), UniProt O14965)
- Sequence (O14965 whole entry): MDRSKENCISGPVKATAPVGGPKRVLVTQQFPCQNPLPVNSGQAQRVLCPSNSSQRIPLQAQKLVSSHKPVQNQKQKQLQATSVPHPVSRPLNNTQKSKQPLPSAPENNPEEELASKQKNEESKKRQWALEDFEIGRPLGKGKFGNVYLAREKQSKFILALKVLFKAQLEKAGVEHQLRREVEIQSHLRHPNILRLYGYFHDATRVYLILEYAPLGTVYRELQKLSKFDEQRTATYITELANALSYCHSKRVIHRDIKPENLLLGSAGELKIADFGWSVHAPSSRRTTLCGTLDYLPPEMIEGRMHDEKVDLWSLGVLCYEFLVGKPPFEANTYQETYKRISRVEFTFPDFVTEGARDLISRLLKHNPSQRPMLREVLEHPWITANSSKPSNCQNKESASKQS
- measurement notes: Aurora A Kinase Biochemical Assay (ADP-Glo)
- condition set: ratio of Aurora A IC50 to PLK4 IC50 (selectivity)
Would you please tag the item Y when its [Aurora A IC50 (nM)]/[PLK4 IC50 (nM)] is 500 or above, and N when it is below?

| smiles input | test target | assigned label |
| --- | --- | --- |
| COc1ccc2c(c1)[C@]1(C[C@H]1c1ccc3c(Nc4ncc(S(=O)(=O)C5CCOCC5)cc4OC)n[nH]c3c1)C(=O)N2 | human recombinant Aurora A (Homo sapiens (Human), UniProt O14965) | Y |
| COc1ccc2c(c1)[C@]1(C[C@H]1c1ccc3c(Nc4nc(C(C)C)ncc4OC)n[nH]c3c1)C(=O)N2 | human recombinant Aurora A (Homo sapiens (Human), UniProt O14965) | Y |
| COc1ccc2c(c1)[C@]1(C[C@H]1c1ccc3c(Nc4ncc(S(=O)(=O)N(C)C)cc4OC)n[nH]c3c1)C(=O)N2 | human recombinant Aurora A (Homo sapiens (Human), UniProt O14965) | N |
| COc1ccc2c(c1)[C@]1(C[C@H]1c1ccc3c(Nc4nc(C5COC5)cnc4OC)n[nH]c3c1)C(=O)N2 | human recombinant Aurora A (Homo sapiens (Human), UniProt O14965) | N |
| COc1ccc2c(c1)[C@]1(C[C@H]1c1ccc3c(Nc4nc(N5CC(O)C5)ncc4Cl)n[nH]c3c1)C(=O)N2 | human recombinant Aurora A (Homo sapiens (Human), UniProt O14965) | N |
| COc1cnc(C)nc1Nc1n[nH]c2cc([C@@H]3C[C@@]34C(=O)Nc3ccc(C(F)(F)F)cc34)ccc12 | human recombinant Aurora A (Homo sapiens (Human), UniProt O14965) | N |
| COc1ccc2c(c1)[C@]1(C[C@H]1c1ccc3c(Nc4ncnc(N5CCN(C)CC5)c4Cl)n[nH]c3c1)C(=O)N2 | human recombinant Aurora A (Homo sapiens (Human), UniProt O14965) | Y |
| COc1ccc2c(c1)[C@]1(C[C@H]1c1ccc3c(Nc4cc(C)nnc4OC)n[nH]c3c1)C(=O)N2 | human recombinant Aurora A (Homo sapiens (Human), UniProt O14965) | Y |
| COc1ccc2c(c1)[C@]1(C[C@H]1c1ccc3c(Nc4nc(N5CC(F)(F)C5)ncc4OC)n[nH]c3c1)C(=O)N2 | human recombinant Aurora A (Homo sapiens (Human), UniProt O14965) | N |
| COc1ccc2c(c1)[C@]1(C[C@H]1c1ccc3c(Nc4ccc(C(=O)NCC(F)F)nc4OC)n[nH]c3c1)C(=O)N2 | human recombinant Aurora A (Homo sapiens (Human), UniProt O14965) | Y |
| COc1ccc2c(c1)[C@]1(C[C@H]1c1ccc3c(Nc4ncnc(N5CCC5)c4OC)n[nH]c3c1)C(=O)N2 | human recombinant Aurora A (Homo sapiens (Human), UniProt O14965) | Y |
| COc1ccc2c(c1)[C@]1(C[C@H]1c1ccc3c(Nc4nc(Cl)ncc4OC)n[nH]c3c1)C(=O)N2 | human recombinant Aurora A (Homo sapiens (Human), UniProt O14965) | Y |
| COc1ccc2c(c1)[C@]1(C[C@H]1c1ccc3c(Nc4nc(N(C)C)ncc4C)n[nH]c3c1)C(=O)N2 | human recombinant Aurora A (Homo sapiens (Human), UniProt O14965) | N |
| COc1ccc2c(c1)[C@]1(C[C@H]1c1ccc3c(Nc4nc(C)ncc4SC)n[nH]c3c1)C(=O)N2 | human recombinant Aurora A (Homo sapiens (Human), UniProt O14965) | Y |
| COc1ccc2c(c1)[C@]1(C[C@H]1c1ccc3c(Nc4ncc(C5CS(=O)(=O)C5)nc4OC)n[nH]c3c1)C(=O)N2 | human recombinant Aurora A (Homo sapiens (Human), UniProt O14965) | N |
| CCOc1cnc(C)nc1Nc1n[nH]c2cc([C@@H]3C[C@@]34C(=O)Nc3ccc(OC)cc34)ccc12 | human recombinant Aurora A (Homo sapiens (Human), UniProt O14965) | Y |
| COc1ccc2c(c1)[C@]1(C[C@H]1c1ccc3c(Nc4ncnc(N5C6CCC5COC6)c4OC)n[nH]c3c1)C(=O)N2 | human recombinant Aurora A (Homo sapiens (Human), UniProt O14965) | Y |
| COc1ccc2c(c1)[C@]1(C[C@H]1c1ccc3c(Nc4ncc(C(=O)N(C)C)nc4OC)n[nH]c3c1)C(=O)N2 | human recombinant Aurora A (Homo sapiens (Human), UniProt O14965) | Y |
| COc1ccc2c(c1)[C@]1(C[C@H]1c1ccc3c(Nc4cc(C)nn4CC(F)F)n[nH]c3c1)C(=O)N2 | human recombinant Aurora A (Homo sapiens (Human), UniProt O14965) | N |
| COc1ccc2c(c1)[C@]1(C[C@H]1c1ccc3c(Nc4nc(C#N)nc(N5CCOCC5)c4OC)n[nH]c3c1)C(=O)N2 | human recombinant Aurora A (Homo sapiens (Human), UniProt O14965) | Y |
| COc1ccc2c(c1)[C@]1(C[C@H]1c1ccc3c(Nc4nc(C5COC5)ncc4Cl)n[nH]c3c1)C(=O)N2 | human recombinant Aurora A (Homo sapiens (Human), UniProt O14965) | N |
